# Assay Summary: recombinant UMI read abundance after kanamycin selection (control-corrected) (log10(CPM+1)); higher = more efficient recombination; extreme values may be limits of the assay; sequences stand for … in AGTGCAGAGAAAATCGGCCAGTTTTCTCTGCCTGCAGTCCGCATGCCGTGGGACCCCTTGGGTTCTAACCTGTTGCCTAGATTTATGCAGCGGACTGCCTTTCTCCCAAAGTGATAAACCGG…AGGTTGGTTTCACT; site = the 11-nt donor
Bucketed by reported recombinant UMI read abundance (log10), buckets being bin 1 (below 0.006), bin 2 (0.006 to below 0.5), bin 3 (0.5 or more)

# count of solved cases: 10
ACGTTCCCATGGACCGGTTTTCCCGGTAATCCGTATTTGTG (site AGGTTCCCTCA) = bin 2
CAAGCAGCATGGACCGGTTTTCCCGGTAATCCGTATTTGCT (site CAAGAAGCTAG) = bin 3
CGGTTTACATGGACCGGTTTTCCCGGTAATCCGTATTTGCT (site CGGTTTACTAG) = bin 3
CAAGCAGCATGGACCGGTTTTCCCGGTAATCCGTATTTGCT (site CAAGCAGCTTG) = bin 3
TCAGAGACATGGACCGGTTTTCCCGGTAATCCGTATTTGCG (site TCATAGACTCG) = bin 3
CCATTCTCATGGACCGGTTTTCCCGGTAATCCGTATTTGTA (site CCATTCTCTTA) = bin 2
ACCCATCCATGGACCGGTTTTCCCGGTAATCCGTATTTGAC (site ACACATCCTGT) = bin 2
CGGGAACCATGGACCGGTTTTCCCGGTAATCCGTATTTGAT (site CAGGAACCTAT) = bin 1
GGCCCGCCATGGACCGGTTTTCCCGGTAATCCGTATTTGCC (site GGCCCGCCTGG) = bin 1
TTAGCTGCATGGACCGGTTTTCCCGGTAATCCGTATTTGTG (site TTAGCTGCTCT) = bin 2

In: Quick check: band for CAATCCTCATGGACCGGTTTTCCCGGTAATCCGTATTTGAA (site CAATTCTCTTT)
Out: bin 1

In: Same lookup for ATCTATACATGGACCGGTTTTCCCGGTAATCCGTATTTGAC (site ATCCATACTGT) , please.
Out: bin 3

In: How about TGTAAACCATGGACCGGTTTTCCCGGTAATCCGTATTTGAC (site TGTAGACCTGT) ?
Out: bin 1

In: Try this sequence next: GCAATATCATGGACCGGTTTTCCCGGTAATCCGTATTTGCA (site ACAGTATCTTG)
Out: bin 3

In: Entry CGCCGTACATGGACCGGTTTTCCCGGTAATCCGTATTTGAT (site CGCCGTACTAA) please
Out: bin 1

In: Another sequence to look at: GGCCACCCATGGACCGGTTTTCCCGGTAATCCGTATTTGGT (site GGCCACCCTAA)
Out: bin 2

In: Try TGGCCGGCATGGACCGGTTTTCCCGGTAATCCGTATTTGTC (site TGGCCGGCTGT) next.
Out: bin 1

In: GACCCGACATGGACCGGTTTTCCCGGTAATCCGTATTTGGT (site GACCCGACTAC) , same question.
Out: bin 2

In: Same lookup for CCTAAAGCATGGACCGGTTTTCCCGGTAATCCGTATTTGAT (site GCTAAAGCTAT) , please.
Out: bin 1

In: What about this sequence? ATCTTCCCATGGACCGGTTTTCCCGGTAATCCGTATTTGCA (site ATCTTCCCTTG)
Out: bin 3

In: Item: CCCTTCTCATGGACCGGTTTTCCCGGTAATCCGTATTTGGC (site CCCTTCTCTTC)
Out: bin 2

In: Cool, now AGTCAGCCATGGACCGGTTTTCCCGGTAATCCGTATTTGGA (site AGTCAGCCTTC)
Out: bin 2

In: Record: GAACCGTCATGGACCGGTTTTCCCGGTAATCCGTATTTGTT (site GAACCGTCTAA)
Out: bin 3

In: Repeat with TGAGGACCATGGACCGGTTTTCCCGGTAATCCGTATTTGGG (site GGAGGACCTCC)
Out: bin 2

In: Another sequence to look at: GGCCACCCATGGACCGGTTTTCCCGGTAATCCGTATTTGGT (site GGCCACCCTAT)
Out: bin 2

In: And the next one, CGCTTGGCATGGACCGGTTTTCCCGGTAATCCGTATTTGGA (site CCCTTGGCTTC) ?
Out: bin 1

---

Measured recombinant UMI read abundance (log10) of individual entries
# Assay Summary: recombinant UMI read abundance after kanamycin selection (control-corrected) (log10(CPM+1)); higher = more efficient recombination; extreme values may be limits of the assay; sequences stand for … in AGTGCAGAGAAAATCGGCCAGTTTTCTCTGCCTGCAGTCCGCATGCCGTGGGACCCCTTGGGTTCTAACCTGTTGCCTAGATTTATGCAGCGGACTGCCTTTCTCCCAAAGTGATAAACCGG…AGGTTGGTTTCACT; site = the 11-nt donor
Lab note: record just the number, no unit beside it.

CATTCTCCATGGACCGGTTTTCCCGGTAATCCGTATTTGAG (site CATTCTCCTCT) = 0.0129
GTAGTCGCATGGACCGGTTTTCCCGGTAATCCGTATTTGGG (site GTAGTCGCTCG) = 0.0493
ATACAAGCATGGACCGGTTTTCCCGGTAATCCGTATTTGAG (site ATACAAGCTCT) = 2.31
CTGGCATCATGGACCGGTTTTCCCGGTAATCCGTATTTGGC (site CTGGCATCTGC) = 2.75

In: Item under review: AATTCTTCATGGACCGGTTTTCCCGGTAATCCGTATTTGTA (site AATTCTTCTTA) . Reported recombinant UMI read abundance (log10)?
Out: 1.04

In: Could you do the same for GTCTATACATGGACCGGTTTTCCCGGTAATCCGTATTTGAC (site CTCTATACTGT) , please?
Out: 0.0424

In: Input AGCTCAACATGGACCGGTTTTCCCGGTAATCCGTATTTGGG (site AGCTCAACTCC)
Out: 0

In: Another sequence to look at: TTTGCGGCATGGACCGGTTTTCCCGGTAATCCGTATTTGAT (site TTTGCGGCTAT)
Out: 0.414

In: Note, next up: AACGTAACATGGACCGGTTTTCCCGGTAATCCGTATTTGCT (site AAGGTAACTAG)
Out: 0.524

---

# Assay Summary: recombinant barcode read abundance after kanamycin selection (control-corrected) (log10(CPM+1)); higher = more efficient recombination; sequences stand for … in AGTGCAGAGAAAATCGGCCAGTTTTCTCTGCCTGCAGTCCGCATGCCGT…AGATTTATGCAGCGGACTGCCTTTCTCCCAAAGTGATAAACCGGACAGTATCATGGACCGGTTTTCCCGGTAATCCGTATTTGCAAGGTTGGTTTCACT; site = the 11-nt target
Endpoint: recombinant barcode read abundance (log10)
Please give the numeric answer without any surrounding text.

TAGCACCCTTGGGTTCTAACCTGTTGCCG (site TAGCACCCTCG) = 1.19
CTAGATTCTTGGGTTCTAACCTGTTGCAT (site ACGATAACTTG) = 0.0921
TATATATCTTGGGTTCTAACCTGTTGCAT (site AGGTGTCCTTC) = 0.112

In: Please report the recorded recombinant barcode read abundance (log10) for CATAGCGCTTGGGTTCTAACCTGTTGCCT (site CATAGCGCTAG) .
Out: 0.605

---

# Assay Summary: recombinant UMI read abundance after kanamycin selection (control-corrected) (log10(CPM+1)); higher = more efficient recombination; extreme values may be limits of the assay; sequences stand for … in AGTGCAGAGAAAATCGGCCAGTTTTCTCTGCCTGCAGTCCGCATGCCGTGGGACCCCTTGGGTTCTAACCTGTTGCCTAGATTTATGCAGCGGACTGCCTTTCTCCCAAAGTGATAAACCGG…AGGTTGGTTTCACT; site = the 11-nt donor
Listed next: entries and their corresponding recombinant UMI read abundance (log10).
Keep the answer to the number alone.

GATTGGACATGGACCGGTTTTCCCGGTAATCCGTATTTGTC (site GATTGGACTGC) = 0
CAATGCTCATGGACCGGTTTTCCCGGTAATCCGTATTTGAC (site CAATGCTCTAT) = 0.737
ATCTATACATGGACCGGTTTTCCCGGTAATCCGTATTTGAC (site ATCTATTCTGT) = 0.327
GTTCGAGCATGGACCGGTTTTCCCGGTAATCCGTATTTGTA (site GTTCGAGCTTG) = 0.543

In: Find the recorded recombinant UMI read abundance (log10) belonging to CTGGTATCATGGACCGGTTTTCCCGGTAATCCGTATTTGCC (site CTAGTATCTGT) and report it.
Out: 0
